// GI50 lookup, one value per entry
# Tested on: MCF7-Y537S cells (MCF7 ER-alpha Y537S mutant)
# Protocol notes: In vitro proliferation (viability) assay, MCF7-Y537S cells
# Format: cell-based
# Test settings: Homo sapiens, MCF7; CellTiter-Glo, day 6 vs day 0; average ± standard deviation; free base and/or salt forms; read-out: MCF7 Y537S GI50

Smiles: O=C(CCCNCCOc1ccc(/C(=C(/CC(F)(F)F)c2ccccc2)c2ccc3[nH]nc(F)c3c2)cc1)N1CCCC1
Unit info: nM
GI50: 9.38
//
Smiles: CS(=O)(=O)O.O=C(/C=C/CNCCOc1ccc(/C(=C(/CC(F)(F)F)c2ccccc2)c2ccc3[nH]nc(F)c3c2)cn1)N1CCC1
Unit info: nM
GI50: 6.72
//
Smiles: Cl.O=C(/C=C/CNCCOc1ccc(/C(=C(/CC(F)(F)F)c2ccccc2)c2ccc3[nH]nc(F)c3c2)cc1)N1CCOCC1
Unit info: nM
GI50: 2.63
//
Smiles: O=C1CCCN1CCOc1ccc(/C(=C(/CC(F)(F)F)c2ccccc2)c2ccc3[nH]nc(F)c3c2)cn1
Unit info: nM
GI50: 24
//
Smiles: CNC(=O)/C=C/CNCCOc1ccc(/C(=C(/CC(F)(F)F)c2ccccc2)c2ccc3[nH]ncc3c2)cc1
Unit info: nM
GI50: 25.2
//
Smiles: CNC(=O)/C=C/CNCCOc1ccc(/C(=C(/CC(F)(F)F)c2ccc(F)cc2Cl)c2ccc3[nH]ncc3c2)cc1
Unit info: nM
GI50: 13.8
//
Smiles: CNC(=O)/C=C/CNCCCOc1ccc(/C(=C(/CC(F)(F)F)c2ccccc2)c2ccc3[nH]nc(F)c3c2)cn1.Cl
Unit info: nM
GI50: 1.27
